Reference for the values: PubChem BioAssay AID2060606

Test system: 922993-354-T-J3-PDC complex spheroids, viability, % test/control;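 further: spheroids exposed to the agents for 7 days before readout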
Assay: Anticancer human tumor 922993-354-T-J3-PDC patient-derived endometrial carcinoma cell line growth inhibition [CLK]
Settings: second compound 1 µM; first compound 0.03 µM; stronger effect = lower value
Entries and their viability, T/C values follow.
Write the value in % as a bare number.

Recorded results for 2 molecules are shown here.
CC(C)CC(NC(=O)C(Cc1ccccc1)NC(=O)c1cnccn1)B(O)O (stereo not drawn) + CNC(=O)c1ccc(Nc2nc(OC3CCCC3)c3c(-c4ccc5nc(C)oc5c4)c[nH]c3n2)c(OC)c1 : 3.9
C=CC(=O)Nc1cc(Nc2nccc(-c3cn(C)c4ccccc34)n2)c(OC)cc1N(C)CCN(C)C + CNC(=O)c1ccc(Nc2nc(OC3CCCC3)c3c(-c4ccc5nc(C)oc5c4)c[nH]c3n2)c(OC)c1 : 42

Lab note: next molecule to report on.
IN: Request: viability, T/C, test system 922993-354-T-J3-PDC complex spheroids, viability, % test/control, entry C=CC(=O)Nc1cc(Nc2nccc(-c3cn(C)c4ccccc34)n2)c(OC)cc1N(C)CCN(C)C + CN1CCN(c2cc(C(=O)Nc3cc4cc(-c5cnn(C)c5)ccc4cn3)ccn2)CC1;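 further: spheroids exposed to the agents for 7 days before readout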
OUT: 0.1
